target: recombinant human IL-21 (rhIL-21) (human, UniProt Q9HBE4 30-162, limits assumed); test: cell-based or functional assay
Sequence (Q9HBE4 30-162 limits assumed): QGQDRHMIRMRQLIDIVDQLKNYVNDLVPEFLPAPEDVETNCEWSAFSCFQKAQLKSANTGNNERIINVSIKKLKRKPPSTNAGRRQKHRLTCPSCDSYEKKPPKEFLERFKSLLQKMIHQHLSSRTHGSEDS
quantity: % pSTAT3+ Jurkat cells, 0.1 nM rhIL-21 + 0.4015 nM antibody

- binder: "MIZ926 (antibody, human IgG1, V domains shown) VH: EVQLVESGGGSVKPGGSLKLSCAASGLTFSHYYMYWVRQTPEKRLEWVAIISDGGDYTHYSDSVKGRFTISRDNAKNNLYLQMSSLQSEDTAMYYCAGDYGYGYEGWFAYWGQGTLVTVST VL: DIVMTQSQKFMSTSVGDRVSVTCKASQNVDTYVAWYQQKPGQSPKALIYSTSYRYSGVPDRFTGSGSGTDFTLTISNVQSEDLAEYFCQQYNSYPWTFGGGTKLEIK"
  measurement: "69.9%"
